From: ChEMBL document CHEMBL4819099

System: MCF7
Assay: Cytotoxicity against human MCF7 cells assessed as reduction in cell viability after 24 hrs by Cell specific bioluminescence imaging (CS-BLI) assay
Conditions: MCF7, 24 h
EXPERIMENTAL_ENDPOINT: IC50 (µM)
Write it as a number; the unit µM goes unstated.

[in] Could you tell me which IC50 is on file for O=C(O)C(Cc1ccccc1[N+](=O)[O-])=NNc1nc(-c2ccc(Cl)c(Cl)c2)cs1 ?
[out] 71.2

====

Test system: MCF7
Assay: Cytotoxicity against human MCF7 cells assessed as reduction in cell viability after 48 hrs by Cell specific bioluminescence imaging (CS-BLI) assay
Details: MCF7, 48 h
EXPERIMENTAL_ENDPOINT: IC50 (µM)
Write it as a number; the unit µM goes unstated.

[in] Could you tell me which IC50 is on file for O=C(O)C(Cc1ccccc1[N+](=O)[O-])=NNc1nc(-c2ccc(Cl)c(Cl)c2)cs1 ?
[out] 43.1
